- TARGET_ENTITY: Granzyme B (Homo sapiens, UniProt P10144)
- Sequence (P10144 whole entry): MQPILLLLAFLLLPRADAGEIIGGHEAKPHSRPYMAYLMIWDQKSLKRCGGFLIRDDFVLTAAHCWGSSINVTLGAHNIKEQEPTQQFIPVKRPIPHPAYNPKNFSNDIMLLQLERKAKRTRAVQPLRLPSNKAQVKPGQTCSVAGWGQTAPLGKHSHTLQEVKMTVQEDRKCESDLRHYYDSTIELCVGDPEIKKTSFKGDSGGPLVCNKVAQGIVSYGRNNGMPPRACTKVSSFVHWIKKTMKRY
- ASSAY_REMARKS: Inhibition of granzyme B
pKi: −log10 of the molar value.
MEASURED_ATTRIBUTE: pKi

a: CC[C@H](C)[C@H](NC(C)=O)C(=O)N[C@H]1CCc2cccc3c2N(C1=O)[C@H](C(=O)N[C@@H](CC(=O)O)C(=O)c1nc2ccccc2s1)C3
b: CC[C@H](C)[C@H](NC(C)=O)C(=O)N[C@H]1CCc2cccc3c2N(C1=O)[C@H](C(=O)N[C@@H](CC(=O)O)C(=O)c1nnc(-c2ccccc2)o1)C3
-- ask Which record would sort first by descending pKi, a or b ? API: response body contains the label of the selected item.
-- reply b

###

- ASSAY_REMARKS: Inhibition of bovine trypsin
- Set-up: species or system Bos taurus
MEASURED_ATTRIBUTE: Ki (nM)

Worked cases, Ki given:
structure=CN[C@H](Cc1ccccc1)C(=O)N1CCC[C@H]1C(=O)N[C@@H](CCCN=C(N)N)C(=O)c1nc2c(s1)CCCC2 units_label=nM observed=4.4
structure=CS(=O)(=O)N1CCC[C@H]1C(=O)N[C@@H](CCCNC(=N)N)C(=O)c1nc2ccccc2s1 units_label=nM observed=38
structure=CN[C@H](Cc1ccccc1)C(=O)N1CCC[C@H]1C(=O)N[C@@H](CCCNC(=N)N)C(=O)c1cc2ccccc2s1 units_label=nM observed=1300
structure=CN[C@H](Cc1ccccc1)C(=O)N1CCC[C@H]1C(=O)N[C@@H](CCCN=C(N)N)C(=O)c1nccs1 units_label=nM observed=1.2
structure=CCOC(=O)c1csc(C(=O)[C@H](CCCNC(=N)N)NC(=O)[C@@H]2CCCN2C(=O)[C@@H](Cc2ccccc2)NC)n1 units_label=nM observed=5.4
structure=CN[C@H](Cc1ccccc1)C(=O)N1CCC[C@H]1C(=O)N[C@@H](CCCNC(=N)N)C(=O)c1nccn1C units_label=nM observed=5800
structure=CN[C@H](Cc1ccccc1)C(=O)N1CCC[C@H]1C(=O)N[C@@H](CCCN=C(N)N)C(=O)c1nc2ccccc2o1 units_label=nM observed=13
structure=N=C(N)NCCC[C@H](NC(=O)[C@@H]1CCCN1C(=O)c1ccccc1)C(=O)c1nc2ccccc2s1 units_label=nM observed=160

a: CN[C@H](Cc1ccccc1)C(=O)N1CCC[C@H]1C(=O)N[C@@H](CCCNC(=N)N)C(=O)c1ccccn1
b: CN[C@H](Cc1ccccc1)C(=O)N1CCC[C@H]1C(=O)N[C@@H](CCCNC(=N)N)C(=O)c1nc2ccccc2n1C
-- ask Decide: a or b , by lowest recorded Ki. API: response body contains the label of the selected item.
-- reply a

###

Target chain: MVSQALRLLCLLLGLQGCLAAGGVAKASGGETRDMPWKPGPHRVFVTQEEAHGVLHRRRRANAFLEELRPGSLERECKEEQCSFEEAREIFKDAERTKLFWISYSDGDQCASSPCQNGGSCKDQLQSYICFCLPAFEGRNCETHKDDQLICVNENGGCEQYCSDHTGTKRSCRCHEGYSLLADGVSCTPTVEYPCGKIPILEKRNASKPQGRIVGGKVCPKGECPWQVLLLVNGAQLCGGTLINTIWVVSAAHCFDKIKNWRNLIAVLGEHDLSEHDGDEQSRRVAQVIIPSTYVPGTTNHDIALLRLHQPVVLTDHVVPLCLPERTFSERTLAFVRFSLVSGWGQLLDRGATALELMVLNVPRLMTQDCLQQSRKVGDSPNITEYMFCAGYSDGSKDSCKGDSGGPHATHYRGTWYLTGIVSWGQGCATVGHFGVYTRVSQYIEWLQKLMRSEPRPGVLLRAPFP
MEASURED_ATTRIBUTE: pIC50
pIC50 is defined as minus the log10 of a concentration measured in mol/L.

-- ask Need pIC50, item CC[C@H](C)[C@H](NC(=O)[C@@H](Cc1ccccc1)NS(=O)(=O)Cc1ccccc1)C(=O)N[C@@H](CCCN=C(N)N)C(=O)c1nccs1
-- reply 6.52

src = ChEMBL document CHEMBL1143211
